- experimental details: in vitro
- measurement conditions: human, hela cells, % viability

[
  {
    "compound": "Nc1ncc(-c2ccsc2)nc1-c1ccc(O)cc1",
    "viability at 28.5 h, 10 µM, %": 100
  },
  {
    "compound": "COc1ccc(C2CC(c3ccccc3O)=NN2)cc1 (centres unmarked)",
    "viability at 28.5 h, 10 µM, %": 77.8
  },
  {
    "compound": "CCn1c(SCC(=O)N2CCC(C(N)=O)(N3CCCCC3)CC2)nnc1-c1ccccc1",
    "viability at 28.5 h, 10 µM, %": 95.2
  },
  {
    "compound": "Cc1noc(C)c1NC(=O)c1cscn1",
    "viability at 28.5 h, 10 µM, %": 95.2
  },
  {
    "compound": "CCCNC(=O)c1ccc(C)c(NC(=O)N[C@@H]2C[C@@H](CO)N(C)C2)c1",
    "viability at 28.5 h, 10 µM, %": 92.9
  },
  {
    "compound": "Cc1cc(S(=O)(=O)Nc2ccc3[nH]ccc3c2)c(C)o1",
    "viability at 28.5 h, 10 µM, %": 71.4
  },
  {
    "compound": "CCN(CC)Cn1nc(Nc2ccccc2)n(-c2ccccc2)c1=S",
    "viability at 28.5 h, 10 µM, %": 87.6
  },
  {
    "compound": "CC(C)(C)c1csc(Nc2ncc(C(F)(F)F)cc2Cl)n1",
    "viability at 28.5 h, 10 µM, %": 77.5
  },
  {
    "compound": "CC(NCc1nc(=O)c2sccc2[nH]1)c1ccc2c(c1)OCCO2 (centres unmarked)",
    "viability at 28.5 h, 10 µM, %": 88.4
  },
  {
    "compound": "CSCCN1CCC(Oc2nccnc2OCC2COc3ccccc3O2)CC1 (centres unmarked) [CBK082996T]",
    "viability at 28.5 h, 10 µM, %": 92.7
  },
  {
    "compound": "CN(C)C(=O)Cc1ccc(Cn2ccnc(N3CCC(Sc4ccccc4)CC3)c2=O)cc1",
    "viability at 28.5 h, 10 µM, %": 112
  },
  {
    "compound": "CS(=O)(=O)N1CC2(CCN(C(=O)N(CCN)CCc3ccc(Cl)cc3)CC2)c2ccccc21 [CBK001687C]",
    "viability at 28.5 h, 10 µM, %": 111
  },
  {
    "compound": "Cc1ccc(C(=O)COC(=O)c2cc(O)nc3ccccc23)cc1[N+](=O)[O-]",
    "viability at 28.5 h, 10 µM, %": 98.8
  },
  {
    "compound": "COc1ccc(-c2cc(C3CCCCCN3)no2)cc1 (centres unmarked)",
    "viability at 28.5 h, 10 µM, %": 96.5
  },
  {
    "compound": "COCCn1cc(C(=O)N2CCOC3CCCCC32)c2ccccc21 (centres unmarked)",
    "viability at 28.5 h, 10 µM, %": 113
  },
  {
    "compound": "O=C(C1CCC1)N1CCN(c2ccccn2)CC1",
    "viability at 28.5 h, 10 µM, %": 107
  },
  {
    "compound": "CC(=O)N1CCCCC[C@@H]2[C@@H]1C[C@@H](Cc1ccccc1)N2C(=O)c1ccccc1",
    "viability at 28.5 h, 10 µM, %": 115
  },
  {
    "compound": "O=C(NCCn1cccn1)c1ncoc1-c1ccc(F)cc1",
    "viability at 28.5 h, 10 µM, %": 91.5
  },
  {
    "compound": "Cc1sc(C(N)=O)cc1[N+](=O)[O-]",
    "viability at 28.5 h, 10 µM, %": 106
  },
  {
    "compound": "C=CCn1c(Cc2csc(NC(=O)c3cnc(C)cn3)n2)n[nH]c1=S",
    "viability at 28.5 h, 10 µM, %": 90.4
  }
]
